Biological target: Serum amyloid P-component (Homo sapiens)
Test: Inhibition of calcium dependent [125I]serum amyloid P-component (unknown origin) binding to immobilized influenza virus A/Shanghai/24/90 at 20 uM incubated for 2 hrs by fluorescence/electron microscopy relative to control
Class Met: inhibition at least 80%. Class Not met: inhibition below 80%.

- NCCOP(=O)(O)O: Not met
- O=C(O)[C@H]1CCCN1C(=O)COc1ccccc1OCC(=O)N1CCC[C@@H]1C(=O)O: Met
- O=C(O)[C@H]1CCCN1C(=O)Cc1cccc(CC(=O)N2CCC[C@@H]2C(=O)O)c1: Not met
- O=C(O)[C@H]1CCCN1C(=O)Cc1ccc(CC(=O)N2CCC[C@@H]2C(=O)O)c2ccccc12: Met

* * *

Biological target: Serum amyloid P-component (Homo sapiens)
Test: Inhibition of calcium dependent [125I]serum amyloid P-component (unknown origin) binding to immobilized influenza virus A/Shanghai/24/90 at 2 uM incubated for 2 hrs by fluorescence/electron microscopy relative to control
Class Met: inhibition at least 60%. Class Not met: inhibition below 60%.

• O=C(O)[C@H]1CCCN1C(=O)Cc1ccc(CC(=O)N2CCC[C@@H]2C(=O)O)cc1 = Met
• O=C(O)[C@H]1CCCN1C(=O)Cc1cccc(CC(=O)N2CCC[C@@H]2C(=O)O)c1 = Met
• Cc1c(OCC(=O)N2CCC[C@@H]2C(=O)O)cccc1OCC(=O)N1CCC[C@@H]1C(=O)O = Met
• O=C(O)[C@H]1CCCN1C(=O)CCCCC(=O)N1CCC[C@@H]1C(=O)O = Met
• O=C(O)[C@H]1CCCN1C(=O)COc1ccc(OCC(=O)N2CCC[C@@H]2C(=O)O)cc1 = Met
• O=C(O)[C@H]1CCCN1C(=O)COc1cccc2c(OCC(=O)N3CCC[C@@H]3C(=O)O)cccc12 = Not met
• O=C(O)[C@H]1CCCN1C(=O)Cc1ccc(CC(=O)N2CCC[C@@H]2C(=O)O)c2ccccc12 = Met
• O=C(O)[C@H]1CCCN1C(=O)[C@H]1CC[C@@H](C(=O)N2CCC[C@@H]2C(=O)O)CC1 = Met
• COc1cccc(OCC(=O)N2CCC[C@@H]2C(=O)O)c1OCC(=O)N1CCC[C@@H]1C(=O)O = Not met
• C[C@H](CS)C(=O)N1CCC[C@@H]1C(=O)O = Not met
• O=C(O)[C@H]1CCCN1C(=O)COc1ccccc1OCC(=O)N1CCC[C@@H]1C(=O)O = Met
• NCCOP(=O)(O)O = Not met
• C[N+](C)(C)CCOP(=O)([O-])O = Not met
• O=C(O)[C@H]1CCCN1C(=O)Cc1cc(O)c(CC(=O)N2CCC[C@@H]2C(=O)O)cc1O = Not met

* * *

List of inhibition values.
Target: Serum amyloid P-component (Homo sapiens)
Test: Inhibition of calcium dependent [125I]serum amyloid P-component (unknown origin) binding to immobilized Neisseria meningitidis at 200 uM incubated for 2 hrs by fluorescence/electron microscopy relative to control
measured parameter: inhibition (%)

* O=C(O)[C@H]1CCCN1C(=O)[C@H]1CC[C@@H](C(=O)N2CCC[C@@H]2C(=O)O)CC1 | 100
* O=C(O)[C@H]1CCCN1C(=O)COc1ccccc1OCC(=O)N1CCC[C@@H]1C(=O)O | 100
* O=C(O)[C@H]1CCCN1C(=O)Cc1cc(O)c(CC(=O)N2CCC[C@@H]2C(=O)O)cc1O | 100
* Cc1c(OCC(=O)N2CCC[C@@H]2C(=O)O)cccc1OCC(=O)N1CCC[C@@H]1C(=O)O | 100
* O=C(O)[C@H]1CCCN1C(=O)COc1ccc(OCC(=O)N2CCC[C@@H]2C(=O)O)cc1 | 65
* COc1cccc(OCC(=O)N2CCC[C@@H]2C(=O)O)c1OCC(=O)N1CCC[C@@H]1C(=O)O | 93
* O=C(O)[C@H]1CCCN1C(=O)Cc1cccc(CC(=O)N2CCC[C@@H]2C(=O)O)c1 | 100
* O=C(O)[C@H]1CCCN1C(=O)Cc1ccc(CC(=O)N2CCC[C@@H]2C(=O)O)cc1 | 100
* O=C(O)[C@H]1CCCN1C(=O)CCCCC(=O)N1CCC[C@@H]1C(=O)O | 79
* O=C(O)[C@H]1CCCN1C(=O)COc1cccc2c(OCC(=O)N3CCC[C@@H]3C(=O)O)cccc12 | 100
* O=C(O)[C@H]1CCCN1C(=O)Cc1ccc(CC(=O)N2CCC[C@@H]2C(=O)O)c2ccccc12 | 100
* C[N+](C)(C)CCOP(=O)([O-])O | 3
* NCCOP(=O)(O)O | 41
